Could you please report measured GI50 for the items listed next?
Test system: OVCAR-8
assay_explanation: NCI tumour cell line growth inhibition, 48 h
Calls of active or inactive are those of the source. No stated cut-off is given here; in the data, active = GI50 up to about 1.1 µM and inactive = higher.

Look up GI50 of CCOC(=O)C1=C(Nc2ccc(Cl)cc2Cl)OC/C1=N\NS(=O)(=O)c1ccc(C)cc1 and report it.
> 100 µM (inactive)

Please look at this molecule and report its GI50: OC1C2C=CCC1CCC2 (stereo unspecified)
> 100 µM (inactive)

Item CCN(CC)C1Oc2cc3c(cc2C(c2cccc(OC)c2O)C1C)OCO3 (stereo unspecified) : provide GI50
13.7 µM (inactive)

For C=C1c2ccccc2N(S(=O)(=O)c2ccc(C)cc2)C12CCCCC2 , write its GI50.
> 100 µM (inactive)

Report measured GI50; entry is CC(NC1CCCC[C@@H]1O)c1ccccc1 (stereo partly specified)
> 100 µM (inactive)

Identify measured GI50 associated with CCOC(=O)c1cnc(-n2[nH]c(C)c(CCO)c2=O)[nH]c1=O
> 100 µM (inactive)
